# reported Mean % WT Binding; entries follow
- study.target: human CD33 L92A (human, UniProt P20138 18-364)
- Sequence (P20138 18-364 L92A limits assumed): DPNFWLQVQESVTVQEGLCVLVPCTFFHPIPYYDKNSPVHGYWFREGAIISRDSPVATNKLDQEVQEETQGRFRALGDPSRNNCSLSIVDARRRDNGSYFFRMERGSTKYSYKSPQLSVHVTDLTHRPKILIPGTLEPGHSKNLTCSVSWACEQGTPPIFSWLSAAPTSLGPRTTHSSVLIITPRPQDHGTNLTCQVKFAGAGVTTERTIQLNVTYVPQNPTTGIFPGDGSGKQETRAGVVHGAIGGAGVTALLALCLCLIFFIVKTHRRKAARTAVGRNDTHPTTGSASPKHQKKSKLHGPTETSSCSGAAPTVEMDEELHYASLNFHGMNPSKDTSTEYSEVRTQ
- run.description: alanine scan, flow cytometry;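 further: HEK293-T cells transiently expressing single-residue alanine mutants of CD33 (alanine swapped to serine), antibody binding read by fluorescence in duplicate, background-subtracted, expressed relative to wild-type CD33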
Respond numerically; units are % WT and should not be typed.

Example binders with recorded Mean % WT Binding:
- binder: "Refmab #3 (antibody, V domains shown, Full-length format is human IgG1 Fc silent (PG-LALA); The alanine scan used IgG or Fab) VH: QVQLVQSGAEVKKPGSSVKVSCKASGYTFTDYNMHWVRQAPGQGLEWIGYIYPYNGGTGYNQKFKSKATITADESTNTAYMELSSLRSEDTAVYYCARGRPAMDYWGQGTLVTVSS VL: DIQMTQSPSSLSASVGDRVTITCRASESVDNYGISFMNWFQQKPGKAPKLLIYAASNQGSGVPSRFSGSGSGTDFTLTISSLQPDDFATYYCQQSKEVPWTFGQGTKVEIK"
  Mean % WT Binding [% WT]: 129
- binder: "Refmab #2 (antibody, V domains shown, Full-length format is human IgG1 Fc silent (PG-LALA); The alanine scan used IgG or Fab) VH: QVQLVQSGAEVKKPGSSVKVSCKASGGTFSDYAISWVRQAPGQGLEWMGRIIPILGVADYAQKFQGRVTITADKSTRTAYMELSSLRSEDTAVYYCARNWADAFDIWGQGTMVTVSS VL: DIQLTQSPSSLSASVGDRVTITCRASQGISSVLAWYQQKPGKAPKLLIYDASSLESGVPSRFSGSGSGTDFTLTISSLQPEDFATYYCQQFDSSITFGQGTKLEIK"
  Mean % WT Binding [% WT]: 106
- binder: "Refmab #1 (antibody, V domains shown, Full-length format is human IgG1 (Absolute Antibody Ab00283-10.0); The alanine scan used IgG or Fab; also called hP67.6) VH: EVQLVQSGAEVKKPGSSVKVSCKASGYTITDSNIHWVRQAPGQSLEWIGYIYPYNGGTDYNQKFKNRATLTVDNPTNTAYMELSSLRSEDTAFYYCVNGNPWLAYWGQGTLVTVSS VL: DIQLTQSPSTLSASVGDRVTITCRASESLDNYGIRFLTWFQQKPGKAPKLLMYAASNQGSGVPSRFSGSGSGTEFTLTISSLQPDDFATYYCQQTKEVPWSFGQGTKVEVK"
  Mean % WT Binding [% WT]: 75.2

Exercise: Which Mean % WT Binding reading was recorded for the binder Refmab #4 (antibody, V domains shown, Full-length format is human IgG1 Fc silent (PG-LALA); The alanine scan used IgG or Fab) VH: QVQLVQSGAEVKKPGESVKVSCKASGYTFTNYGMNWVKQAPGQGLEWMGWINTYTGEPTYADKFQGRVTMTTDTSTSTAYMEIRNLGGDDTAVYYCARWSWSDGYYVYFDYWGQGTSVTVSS VL: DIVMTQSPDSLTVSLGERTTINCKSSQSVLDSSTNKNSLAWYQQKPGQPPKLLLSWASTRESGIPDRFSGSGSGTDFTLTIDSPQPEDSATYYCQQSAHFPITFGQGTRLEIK ?
Solution: 85.2
